The following compounds are listed with their measured metabolised at 10 min values.
# ASSAY PROCEDURE: in vitro
# Format: in vitro ADME
# EXPERIMENTAL CONTEXT: carboxylesterase, 10 min., 37° C.; mean ± SD, n = 3; SD printed on next line: 0.08 (methyl ester), 0.0 (acetoxymethyl ester); read-out: Hydrolysis Rate
Just the number in %, nothing appended.

compound="COC(=O)C1CC(C)(C)N([O])C1(C)C (centres unmarked)" value_kind="metabolised at 10 min" measured_result=2.54

input: Entry CC(=O)OCOC(=O)C1CC(C)(C)N([O])C1(C)C (centres unmarked) has what metabolised at 10 min?
output: 100
